Assay: qHTS for Inhibitors of binding or entry into cells for Lassa Virus; also: nearly all actives have a fitted effect of over 50% in size
Details: Lassa virus pseudotype entry inhibition, cell reporter; series mostly up to 37.9 µM
Screen size: about 300,000 compounds; about 3,700 (1.2%) were called active. Inconclusive results (about 20%) are left out. Calls follow the shape of the full dose curve; tested in HEK293 cells. The list comes from a sample in which actives are over-represented; it also holds close analogues and randomly drawn compounds.
Respond only with the outcome that fits, drawn from active, inactive

compound	class_label
O=[N+]([O-])c1ccc(N=NNc2ccc([N+](=O)[O-])cc2)cc1	inactive

Now turn to the next compound.
Record request — test call for COc1ccccc1N1CC(C(=O)Nc2nnc(SCC(=O)NCC3CCCO3)s2)CC1=O (stereo not drawn)
inactive

* * *

Experiment: qHTS for Inhibitors of binding or entry into cells for Lassa Virus; also: nearly all actives have a fitted effect of over 50% in size
Conditions: Lassa virus pseudotype entry inhibition, cell reporter; series mostly up to 37.9 µM
Hit rate of the full screen: of about 300,000 compounds, about 3,700 (1.2%) were called active. Roughly 20% stayed inconclusive and do not appear here. The call rests on the fitted dose curve; tested in HEK293 cells. This excerpt belongs to a sample that is enriched for actives.
Just give me one of these, please: active, inactive

Before answering, review these 5 worked examples.
compound	class_label
COc1ccc(Cl)cc1NC(=O)NCC1CCN(Cc2ccccc2F)CC1	inactive
CCOC(=O)c1c(S(=O)(=O)Nc2cccc(Cl)c2)c(C)n(C)c1C	inactive
O=C(COC(=O)C1CCCO1)Nc1nc(-c2ccc(F)cc2)cs1 (configuration not stated)	inactive
CC(C)(CNC(=O)c1ccc(Cl)c(S(=O)(=O)N2CCc3ccccc3C2)c1)N1CCOCC1	active
CCN(CC)c1ccc(S(=O)(=O)N2CCCCC2)cc1NC(=O)C1=COCCO1	inactive

Record lookup: outcome of this test for CCOC(=O)CC1C(=O)NCCN1c1nc2c(C)cccn2c(=O)c1/C=C1\SC(=S)N(C(C)CC)C1=O (configuration not stated) ?
active

Call for entry COc1cc(C(=O)CCc2ccc3c(c2)OCO3)cc(OC)c1OC :
inactive

Status in this test for Cc1ccc(-c2noc(CCC(N)=O)n2)cc1 ?
inactive

Hi, do you know how Cc1cc2c(cc3c(SCc4nc(-c5ccccc5)oc4C)nnc(C)n32)o1 came out in this test?
inactive

* * *

Test: qHTS for Inhibitors of binding or entry into cells for Lassa Virus; also: nearly all actives have a fitted effect of over 50% in size; also: potency is read from the fitted curve at half-maximal effect
Settings: Lassa virus pseudotype entry inhibition, cell reporter; series mostly up to 37.9 µM
Hit rate of the full screen: of about 300,000 compounds, about 3,700 (1.2%) were called active. About 20% were inconclusive and are not listed. This excerpt belongs to a sample that is enriched for actives.
property_label: Potency

compound	property_label	result
O=C(c1ccco1)n1nc(-c2ccc(Cl)cc2)nc1NCc1ccccc1	Potency	inactive
CC(CC(=O)N1CCN(c2ccccc2)CC1)S(=O)(=O)c1ccc2c(c1)NC(=O)CS2 (configuration not stated)	Potency	inactive
COc1ccc(C(C(=O)NC2CCCCC2)N(C(=O)c2snc(C(N)=O)c2N)c2ccccc2OC)cc1 (configuration not stated)	Potency	10 µM (active)
COc1ccc(C(=O)C(C)OC(=O)c2cccc(S(=O)(=O)Nc3c(C)n(C)n(-c4ccccc4)c3=O)c2)cc1 (configuration not stated)	Potency	inactive
O=C(CCC1CCCCC1)Nc1cc(C(F)(F)F)ccc1N1CCOCC1	Potency	inactive
COc1ccc(CC(=O)NC(C)c2ccc(Cl)c(Cl)c2)cc1S(=O)(=O)N1CCOCC1 (configuration not stated)	Potency	inactive
O=C(c1cccs1)n1nc(NCc2ccccc2)nc1NCc1ccccc1	Potency	10 µM (active)
O=C(Cc1c(Cl)cccc1Cl)NC1CC1	Potency	inactive
Cc1ccc(Oc2ccc(N)cc2)cc1	Potency	inactive
COc1ccc(C(=O)NCCc2ccc(S(N)(=O)=O)cc2)cc1OC	Potency	inactive

So what does the record say about Potency for COc1cccc(CC(=NO)c2cccc(OC)c2)c1 ?
inactive

// Potency lookup, key: COc1ccccc1NC(=O)Nc1nc(CC(=O)Nc2ccccc2F)cs1
inactive

May I ask what Potency has been recorded for COc1ccc(N(CC(=O)Nc2cc(OC)cc(OC)c2)S(=O)(=O)c2c(C)n[nH]c2C)cc1 ?
inactive

Any idea what Potency was measured for CC(C)(C)c1ccc(Oc2ccc(N)cc2)cc1 ?
0.651 µM (active)

Look up Potency: CCOc1ccc(NS(=O)(=O)c2ccc(C(=O)NC3CCN(Cc4ccccc4)CC3)cc2)cc1
inactive

Returns the measured Potency for the input compound. Input: CCOc1ccc(NC(=O)COC(=O)C2CCC(=O)N2)c([N+](=O)[O-])c1 (configuration not stated)
inactive

Consider the compound shown here: O=C(CC(O)(C(F)(F)F)C(F)(F)F)Nc1ccc(Cl)c(Cl)c1 What is its recorded Potency?
4.61 µM (active)

Recorded Potency for Cc1c[n+]([O-])ccc1[N+](=O)[O-] , please?
inactive

Query (compound): CCC(CC)C(=O)N1CCc2cc(OC)c(OC)cc2C1COc1ccc(F)cc1 (configuration not stated) ; field requested: Potency
inactive

# Potency lookup, item C/C(=N\NC(=S)Nc1ccc(C)cc1)c1cc2ccccc2o1
6.51 µM (active)

Quick one: Potency for O=C(CCc1ccccc1Cl)Nc1ccc(S(=O)(=O)Nc2nccs2)cc1 ?
inactive

Which Potency value belongs to Nc1ccc(Oc2ccc(Cl)cc2)cc1 ?
inactive

* * *

Assay: qHTS for Inhibitors of binding or entry into cells for Lassa Virus; also: nearly all actives have a fitted effect of over 50% in size
Conditions: Lassa virus pseudotype entry inhibition, cell reporter; series mostly up to 37.9 µM
About 3,700 (1.2%) of roughly 300,000 compounds were called active. About 20% were inconclusive and are not listed. Calls follow the shape of the full dose curve; tested in HEK293 cells. For the sample, actives were picked, then their nearest neighbours and some compounds at random.
Hi there, use one of these labels in your reply, thanks! TRUE for active, FALSE for inactive

Solved entries (count: 5):
compound	class_label
COc1ccc(-c2cc(C(=O)n3cnc4ccccc43)c3ccccc3n2)cc1	FALSE
O=C(COc1ccccc1F)Nc1nc(-c2ccccn2)cs1	FALSE
CCOc1ccc(N(Cc2ccccc2)C(=O)c2nc(SCC)ncc2Cl)cc1	FALSE
CC(C)(C)C(=O)Nc1cccc(-c2ccc[nH]2)n1	FALSE
Cc1ccc(-c2csc(NC(=O)Cc3cccs3)n2)cc1C	TRUE

Answer briefly: the call reported for Cc1cccc(N=C2NN=C(c3c[nH]c4ccccc34)CS2)c1 in this assay.
TRUE

Lab log entry: COCCN(C(=O)C(C)N1C(=O)c2ccccc2C1=O)c1c(N)n(CC(C)C)c(=O)[nH]c1=O (stereo not given) — outcome as called in the assay?
FALSE

Which outcome did this test record for the compound OC(COc1ccc2ccccc2c1)Cn1cncn1 (stereo not given) ?
FALSE

Answer briefly: the call reported for O=C(O)CCCCc1nc2ccccc2s1 in this assay.
FALSE

For COc1ccc2c(c1)C(=O)Nc1cc(Cl)ccc1N2 , what call appears in the results of this test?
FALSE

* * *

Assay: qHTS for Inhibitors of binding or entry into cells for Lassa Virus; also: nearly all actives have a fitted effect of over 50% in size
Settings: Lassa virus pseudotype entry inhibition, cell reporter; series mostly up to 37.9 µM
In all, about 300,000 compounds went through this assay and about 3,700 (1.2%) were called active. Roughly 20% stayed inconclusive and do not appear here. Calls come from the whole dose curve; tested in HEK293 cells. What follows is part of a selection rich in actives, with near analogues and random picks from the rest.
API: response.call in active, inactive

compound	class_label
CC(C)(C)OC(=O)N/N=C/c1cn(-c2ccccc2)nc1-c1cccnc1	inactive
Cc1cccc(N2CCN(c3ccc(C(=O)O)cc3NC(=O)c3ccccc3F)CC2C)c1 (stereo unspecified)	inactive
O=C(O)c1ccc(N/N=C/c2cn(-c3ccccc3)nc2-c2cccs2)cc1	active
S=C(Nc1cccc(Br)c1)N1CCn2cccc2C1c1cccnc1 (stereo unspecified)	active
CCOc1cc2ccccc2cc1C(=O)Nc1ccccn1	inactive
Cc1csc(=O)n1CC(=O)Nc1ccc(S(C)(=O)=O)cc1	inactive
c1ccc(C(c2ccccc2)N2CCN(Cc3nnnn3C3CCCCC3)CC2)cc1	active
CCOC(=O)c1c(-c2cccc(C)c2)csc1NC(=O)c1c(-c2ccccc2)noc1C	active

Recorded call for O=C(NCc1cccnc1)c1cn(-c2ccccc2)nc1-c1cccs1 ?
inactive

// outcome(item) with item = OCc1ccc(-c2ccccc2)c(-c2ccccc2)c1
inactive

Hey, what did the test say about COc1cccc(C=CC(=O)C=CC=Cc2ccccc2)c1 ?
inactive

* * *

Assay: qHTS for Inhibitors of binding or entry into cells for Lassa Virus; also: nearly all actives have a fitted effect of over 50% in size
Conditions: Lassa virus pseudotype entry inhibition, cell reporter; series mostly up to 37.9 µM
Out of some 300,000 compounds screened, about 3,700 (1.2%) were called active. About 20% were inconclusive and are not listed. Calls follow the shape of the full dose curve; tested in HEK293 cells. Only a selection was taken, and actives are over-represented in it overall.
Hello, when you answer, please use one of the following outcomes: 1 for active, -1 for inactive

Give the logged outcome of this assay for the following compound: CN(C)S(=O)(=O)c1cccc(NC(=S)N/N=C/C(=O)c2ccccc2)c1
-1

* * *

Test: qHTS for Inhibitors of binding or entry into cells for Lassa Virus; also: nearly all actives have a fitted effect of over 50% in size
Settings: Lassa virus pseudotype entry inhibition, cell reporter; series mostly up to 37.9 µM
About 3,700 (1.2%) of roughly 300,000 compounds were called active. Inconclusive results (about 20%) are left out. Calls come from the whole dose curve; tested in HEK293 cells. The list comes from a sample in which actives are over-represented; it also holds close analogues and randomly drawn compounds.
Mark one answer only. Choices: active, inactive

compound	class_label
Cc1cc(C(=O)COc2ccccc2[N+](=O)[O-])c(C)n1-c1cccc(S(=O)(=O)N2CCOCC2)c1	active

Dear colleague, could you share the recorded outcome for Cc1cc(C)c(NC(=O)CN2C(=O)c3cccnc3Oc3ccc(Cl)cc32)c(C)c1 when you have a moment?
inactive

# outcome recorded in this test, key = O=C(COc1ccccc1[N+](=O)[O-])N/N=C/c1ccc[nH]1
inactive

// return assay outcome for CCC(C(=O)Nc1cc(OC)ccc1OC)n1c(=O)c(C(F)(F)F)nc2ccccc21 (stereo not drawn)
inactive

In this assay, the call recorded for O=C(NC(Nc1nc2ccc([N+](=O)[O-])cc2s1)(C(F)(F)F)C(F)(F)F)c1ccccc1 was what?
active

Hi team, can someone confirm the assay call for CCCC(=O)Nc1ccc(C(=O)N/N=C/c2ccc[nH]2)cc1 ?
active

Tell me the recorded outcome of this test for CCCN1CCN(C(=O)CCCNC(=O)c2ccc(Cl)cc2)CC1 .
inactive
